# inhibition at 10 µM values compiled below
Target: Cathepsin K (Homo sapiens, UniProt P43235)
Construct: purchased Biovision K150-100
Sequence (P43235 115-329): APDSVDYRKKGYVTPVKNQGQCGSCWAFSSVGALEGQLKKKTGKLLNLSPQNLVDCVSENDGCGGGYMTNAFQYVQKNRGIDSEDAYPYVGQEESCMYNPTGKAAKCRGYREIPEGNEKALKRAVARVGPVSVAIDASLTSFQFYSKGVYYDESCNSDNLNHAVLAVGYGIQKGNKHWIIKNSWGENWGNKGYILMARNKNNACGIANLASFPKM
Assay: Preliminary screening of Cathepsin K (Cathepsin K Inhibitor Screening Kit K150-100, Biovision)
Type: biochemical
Settings: 10 μM compound; replicate 1; relative inhibition rate vs 10 μM FF-FMK control; read-out: Inhibition % (10 μM) replicate 1
Observable: inhibition at 10 µM (%)

Compound: CCCCCCNC(=O)[C@H](CCSC)NC(=O)[C@H]1O[C@@H]1C(=O)OCC
Target System: Cathepsin K (Homo sapiens, UniProt P43235)
Observable: inhibition at 10 µM
Scale Unit: %
Measurement: 91.3
//
Compound: CCOC(=O)[C@H]1O[C@@H]1C(=O)N[C@@H](CSCc1ccccc1)C(=O)NC(C)(C)CC
Target System: Cathepsin K (Homo sapiens, UniProt P43235)
Observable: inhibition at 10 µM
Scale Unit: %
Measurement: 60.8
//
Compound: CCOC(=O)[C@H]1O[C@@H]1C(=O)N[C@@H](CSCc1ccccc1)C(=O)N1CCCC1
Target System: Cathepsin K (Homo sapiens, UniProt P43235)
Observable: inhibition at 10 µM
Scale Unit: %
Measurement: 29.7
//
Compound: CCOC(=O)[C@H]1O[C@@H]1C(=O)N[C@@H](CCSC)C(=O)NC(C)CC (stereo partly drawn)
Target System: Cathepsin K (Homo sapiens, UniProt P43235)
Observable: inhibition at 10 µM
Scale Unit: %
Measurement: 36.2
//
Compound: CCOC(=O)[C@H]1O[C@@H]1C(=O)N[C@@H](CCSC)C(=O)NCCc1ccc(OC)cc1
Target System: Cathepsin K (Homo sapiens, UniProt P43235)
Observable: inhibition at 10 µM
Scale Unit: %
Measurement: 80.2
//
Compound: CCOC(=O)[C@H]1O[C@@H]1C(=O)N[C@@H](CCSC)C(=O)NCCCCc1ccccc1
Target System: Cathepsin K (Homo sapiens, UniProt P43235)
Observable: inhibition at 10 µM
Scale Unit: %
Measurement: 91.1
//
Compound: CCCCCCNC(=O)[C@H](CSCc1ccccc1)NC(=O)[C@H]1O[C@@H]1C(=O)OCC
Target System: Cathepsin K (Homo sapiens, UniProt P43235)
Observable: inhibition at 10 µM
Scale Unit: %
Measurement: 56.1
//
Compound: CCOC(=O)[C@H]1O[C@@H]1C(=O)N[C@@H](CCSC)C(=O)N1CC(C)CC(C)C1 (stereo partly drawn)
Target System: Cathepsin K (Homo sapiens, UniProt P43235)
Observable: inhibition at 10 µM
Scale Unit: %
Measurement: 64.2
//
Compound: CCOC(=O)[C@H]1O[C@@H]1C(=O)N[C@@H](CSCc1ccccc1)C(=O)N1CCC(c2ccccc2)CC1
Target System: Cathepsin K (Homo sapiens, UniProt P43235)
Observable: inhibition at 10 µM
Scale Unit: %
Measurement: 70.1

Data provenance is patent US10647690B2.
